Each recorded value in this set is attributed to patent US20210380548A1.

IC50: recorded values
# Study system: MOF-KAT8 (Homo sapiens)
# Sequence (Q9H7Z6 177-447): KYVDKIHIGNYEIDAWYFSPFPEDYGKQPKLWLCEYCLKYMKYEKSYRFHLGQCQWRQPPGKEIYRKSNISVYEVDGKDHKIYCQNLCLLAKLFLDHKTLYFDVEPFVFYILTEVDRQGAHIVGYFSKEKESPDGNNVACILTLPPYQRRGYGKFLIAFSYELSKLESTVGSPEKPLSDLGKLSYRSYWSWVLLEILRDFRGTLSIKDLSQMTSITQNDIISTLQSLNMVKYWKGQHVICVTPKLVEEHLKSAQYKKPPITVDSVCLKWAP
# Protocol text: Revised Acetyltransferase Biochemical Assay, KAT8
Report only the number, with the unit µM understood.

Please review the entries below; each comes with its answer.
- Compound: "O=C(NCC(c1ccccc1)c1nncs1)C1=Nc2ccc(I)cc2S(=O)(=O)N1 (stereo not drawn) [Example 168]"
  Readout type: "IC50"
  Endpoint value: 26.5
- Compound: "O=C(NCCc1ccccc1-n1nccn1)C1=Nc2ccc(I)cc2S(=O)(=O)N1 [Example 60]"
  Readout type: "IC50"
  Endpoint value: 24
- Compound: "O=C(NCC(c1cccc(O)c1)c1ncco1)C1=Nc2ccc(Cl)cc2S(=O)(=O)N1 (stereo not drawn) [Example 216]"
  Readout type: "IC50"
  Endpoint value: 58.6
- Compound: "COCCC(CNC(=O)C1=Nc2ccc(I)cc2S(=O)(=O)N1)c1ccccc1 (stereo not drawn) [Example 220]"
  Readout type: "IC50"
  Endpoint value: 26.8
- Compound: "CN(CC(c1ccccc1)c1ncco1)C(=O)C1=Nc2ccc(I)cc2S(=O)(=O)N1 (stereo not drawn) [Example 203]"
  Readout type: "IC50"
  Endpoint value: 115

Kindly note the recorded IC50 for O=C(NCC(F)(c1ccccc1)c1ncco1)C1=Nc2ccc(Cl)cc2S(=O)(=O)N1 (stereo not drawn) [Example 175] , which is 30.2
